Recorded IC50 for the following compounds
target: Mitogen-activated protein kinase kinase kinase 14 (Homo sapiens); assay: Inhibition of NIK (unknown origin) incubated 30 to 60 mins by ADP-Glo Kinase
Sequence (Q99558 whole entry): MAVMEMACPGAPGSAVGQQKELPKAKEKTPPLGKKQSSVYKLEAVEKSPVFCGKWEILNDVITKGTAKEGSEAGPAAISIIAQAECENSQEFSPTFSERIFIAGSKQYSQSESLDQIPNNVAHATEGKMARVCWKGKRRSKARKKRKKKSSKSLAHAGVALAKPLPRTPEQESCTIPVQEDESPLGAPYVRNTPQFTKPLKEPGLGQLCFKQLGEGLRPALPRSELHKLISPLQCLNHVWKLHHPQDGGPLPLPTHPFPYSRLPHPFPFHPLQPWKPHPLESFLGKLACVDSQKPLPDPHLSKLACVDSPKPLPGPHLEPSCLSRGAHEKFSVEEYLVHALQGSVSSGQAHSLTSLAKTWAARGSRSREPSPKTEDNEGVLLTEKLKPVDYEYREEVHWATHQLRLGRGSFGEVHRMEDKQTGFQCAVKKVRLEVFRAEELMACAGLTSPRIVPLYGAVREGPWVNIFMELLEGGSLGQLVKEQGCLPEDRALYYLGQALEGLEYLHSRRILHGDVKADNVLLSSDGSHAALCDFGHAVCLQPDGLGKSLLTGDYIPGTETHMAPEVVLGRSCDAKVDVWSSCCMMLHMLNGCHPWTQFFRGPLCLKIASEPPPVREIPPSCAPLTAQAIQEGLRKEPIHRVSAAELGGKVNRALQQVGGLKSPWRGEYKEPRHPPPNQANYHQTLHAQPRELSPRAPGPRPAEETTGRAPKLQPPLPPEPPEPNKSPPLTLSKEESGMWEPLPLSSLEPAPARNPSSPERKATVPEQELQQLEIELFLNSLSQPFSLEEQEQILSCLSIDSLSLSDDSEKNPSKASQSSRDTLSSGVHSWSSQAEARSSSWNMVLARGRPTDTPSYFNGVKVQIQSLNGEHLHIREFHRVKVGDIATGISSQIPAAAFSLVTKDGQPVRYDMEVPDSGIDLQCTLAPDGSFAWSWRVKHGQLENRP
Record the value in µM, omitting the unit from your answer.

COMPOUND	REPORTED
CC(O)(C#Cc1cc2n(n1)CCCN2c1ccnc(Nc2ccc3c(c2)OCO3)n1)c1ccccc1 (configuration not stated)	0.0291
CC(O)(C#Cc1cc2n(n1)CCCN2c1nc(N)ncc1Cl)c1nccs1 (configuration not stated)	0.0708
CC(C)Oc1cccc(Nc2nccc(N3CCCn4nc(C#CC(C)(O)c5nccs5)cc43)n2)n1 (configuration not stated)	0.0165
Cc1cc(C(C)(O)C#Cc2cc3n(n2)CCCN3c2ccnc(Nc3ccc4c(c3)OCO4)n2)no1 (configuration not stated)	0.00378

// IC50 lookup, compound = CN(C)c1cccc(Nc2nccc(N3CCCn4nc(C#CC(C)(O)c5nccs5)cc43)n2)c1 (configuration not stated) , result: 0.00776

Entry COc1cccc(Nc2nccc(N3CCCn4nc(C#CC(C)(O)c5nccs5)cc43)n2)n1 (configuration not stated) — recorded IC50 = 0.00443

GET /value?item= CN(C)c1ccnc(Nc2nccc(N3CCCn4nc(C#CC(C)(O)c5nccs5)cc43)n2)c1 (configuration not stated) &field=IC50 returns 0.208

Record COc1cccc(Nc2nccc(N3CCCn4nc(C#CC(C)(O)c5nccs5)cc43)n2)c1 (configuration not stated) . Reported IC50: 0.00577

Reported IC50 for CN(C)c1cccc(Nc2nccc(N3CCCn4nc(C#CC(C)(O)c5nccs5)cc43)n2)n1 (configuration not stated) was 0.013

Measured IC50, CC(O)(C#Cc1cc2n(n1)CCCN2c1ncnc(Nc2ccc(Cl)cc2)n1)c1nccs1 (configuration not stated) : 0.00473

The reported value for CC(C)Nc1nccc(N2CCCn3nc(C#CC(C)(O)c4nccs4)cc32)n1 (configuration not stated) in terms of IC50 is 0.0143

CC(C)(O)C#Cc1cc2n(n1)CCCN2c1ccnc(Nc2ccc3c(c2)OCO3)n1 has a reported IC50 of 0.0227

Origin of measurements: ChEMBL document CHEMBL5518244
